Test system: HOP-62 NSCLC
protocol: NCI-60 one-dose screen, 48 h
conditions: 10 µM unless noted
The panel holds about 83,000 compounds, 20% with a hit somewhere; the sample as a whole holds those more often. Calls of active or inactive are those of the source. Rule for the calls: active = growth percent below 10; inactive = the rest.
Permitted responses: YES for active, NO for inactive

Can you look up the reported call for COc1cc2nc(Cc3ccc(C)cc3)[nH]c(=O)c2cc1OC for me? NO

Can you look up the reported call for COc1ccc2c(c1)c(CC(=O)NCCOCCOCC(=O)Nc1ccc(OC)c(C(N)=O)c1O)c(C)n2C(=O)c1ccc(Cl)cc1 for me? NO

Can you look up the reported call for COc1ccc(-c2c[nH]c(C(=O)O)c2-c2cc(OC)c3c(c2OC)OCO3)cc1 for me? NO

Can you look up the reported call for Cc1ccc(C2CC(c3cccc(Nc4ccncc4)c3)=NN2c2ccccc2)cc1 (stereo not given) for me? YES

Can you look up the reported call for CC1(C)CN(c2cnc(C(=O)Nc3cc(F)cc4cccnc34)cn2)CCN1 for me? NO

###

Tested on: OVCAR-3 ovarian
protocol: NCI-60 one-dose screen, 48 h
conditions: 10 µM unless noted
Compounds without any hit were thinned out: in the full panel of roughly 83,000, 20% have a hit. Active and inactive are the calls of the source. The calls were made as follows: active = growth percent below 10; inactive = the rest.
Permitted responses: 1.0 (active), 0.0 (inactive)

Can you look up the reported call for CCCCCCOc1ccc(/C=N/Nc2cc(C)nc3ccc(Br)cc23)cc1 for me? 1.0

Can you look up the reported call for NC(=O)CN1CCN(c2ccccc2Cl)CC1 for me? 0.0

Can you look up the reported call for O=S(=O)(NCCNc1nccc(-c2c(-c3ccc(F)c(O)c3)nc3occn23)n1)c1ccccc1 for me? 0.0

Can you look up the reported call for CCCC/C(=N\N=C(N)N)c1ccc(F)cc1 for me? 1.0

Can you look up the reported call for CCCc1cc2c(cc1Br)OCO2 for me? 0.0

Can you look up the reported call for C=Cc1cc[n+](CCCCCCCCCCCC)cc1 for me? 0.0

Can you look up the reported call for O=c1[nH]c2c(s1)CCCC2CN1CCCCC1 (configuration not stated) for me? 0.0

Can you look up the reported call for COc1ccc(C2=C(c3ccccc3)c3ccc(OC(C)=O)cc3OC2(C)C)cc1 for me? 0.0

Can you look up the reported call for Clc1ccc(C2CC(c3cccc(Nc4ccncc4)c3)=NN2c2ccccc2)cc1 (configuration not stated) for me? 0.0

Can you look up the reported call for COc1ccc(-c2c(-c3ccccc3)noc2N)cc1OC for me? 0.0

Can you look up the reported call for Nc1nnc(C(=O)c2cnc3n(c2=O)CCCCC3)s1 for me? 0.0

Can you look up the reported call for Cc1ccc(Nc2cc(=S)nc(N)[nH]2)cc1C for me? 0.0

Can you look up the reported call for CC(C)NC(=O)N1C(=O)CCC1NNC(=O)c1ccc([N+](=O)[O-])cc1 (configuration not stated) for me? 0.0

Can you look up the reported call for CC1(C)NCCC[C@]2(C)[C@H]3CC=C4[C@@H]5C[C@@](C)(CO)CC[C@]5(C)CC[C@@]4(C)[C@]3(C)CC[C@@H]12 for me? 0.0

Can you look up the reported call for CC(C)C1C2=C(NCCN1C(=O)Cc1ccccc1)C(C)(C)N(Cc1ccccc1)C2=O (configuration not stated) for me? 0.0

Can you look up the reported call for O=C(OCc1nc2nc(Cl)nc(N3CCOCC3)c2[nH]1)n1ccnc1 for me? 1.0

Can you look up the reported call for CCC(C)N(CCNc1cc(OC)cc2cccnc12)CCC(C)C (configuration not stated) for me? 0.0

Can you look up the reported call for Clc1ccc(N2N=C(c3cccc(Nc4ccncc4)c3)CC2c2ccccc2)cc1 (configuration not stated) for me? 0.0

Can you look up the reported call for COc1ccc(CNC(=O)COc2ccc(/C=N/Nc3nc4ccccc4s3)cc2)cc1 for me? 0.0

Can you look up the reported call for O=S(=O)(NCCCNc1nccc(-c2c(-c3cccc(O)c3)nc3occn23)n1)c1ccc(F)cc1 for me? 0.0

Can you look up the reported call for Cc1ccc(-c2csc(/N=C3\C(=O)Nc4ccccc43)n2)cc1 for me? 1.0

Can you look up the reported call for CCCCCN1C=C/C(=C\C(=O)N(C)c2ccc(Br)cc2)c2ccccc21 for me? 0.0
